Test: log P determination by HPLC (EEC Directive 79/831 Annex V.A8)
Assay type: physicochemical
Conditions: log P
# Lookup of reported chromatographic logP keyed by entry
Reply: number alone, nothing else.

Use the examples below as a reference point.
>>> measured("Cc1cc(F)cc(C(=O)NC2CCC2)c1NC(=O)c1cc(Cn2nnc(C(F)(F)F)n2)nn1-c1ncccc1Cl")
3.23
>>> measured("CSC[C@H](C)NC(=O)c1cc(C#N)cc(C)c1NC(=O)c1cc(Cn2nnc(C(F)F)n2)nn1-c1ncccc1Cl")
2.77
>>> measured("CSC[C@H](C)NC(=O)c1cc(F)cc(C)c1NC(=O)c1cc(Cn2nnc(C(F)(F)F)n2)nn1-c1ncccc1Cl")
3.31
>>> measured("Cc1cc(Cl)cc(C(=O)NCC(C)C)c1NC(=O)c1cc(Cn2nnc(C(F)(F)F)n2)nn1-c1ncccc1Cl")
3.78
>>> measured("Cc1cc(C#N)cc(C(=O)NC(C)C)c1NC(=O)c1cc(Cn2nnc(C(F)(F)C(F)(F)F)n2)nn1-c1ncccc1Cl")
3.55
>>> measured("C=CCNC(=O)c1cc(C#N)cc(C)c1NC(=O)c1cc(Cn2nnc(C(F)(F)F)n2)nn1-c1ncccc1Cl")
2.97

# query: chromatographic logP of entry Cc1cc(C#N)cc(C(=O)NCC#N)c1NC(=O)c1cc(Cn2nnc(C(F)F)n2)nn1-c1ncccc1Cl
2.19

And for Cc1cc(I)cc(C(=O)NC(C)C)c1NC(=O)c1cc(Cn2nnc(C(F)(F)F)n2)nn1-c1ncccc1Cl ?
3.73

###

Listed below: chromatographic logP values for each entry.
Experiment: log P determination by HPLC (EEC Directive 79/831 Annex V.A8)
Assay type: physicochemical
Settings: log P
Procedure: The measurements were carried out using an Agilent 1100 LC system with a 50*4.6 Zorbax Eclipse C18 1.8 μm column (oven temperature 55° C., flow rate 2.0 ml/min). The following mobile phases were used: Mobile phase A: acetonitrile+1000 μl of formic acid/l Mobile phase B: Millipore water+900 μl of formic acid/l
Response field accepts a number only; no unit should be typed.

>>> measured("Cc1cc(C#N)cc(C(=O)NC(C)C)c1NC(=O)c1cc(C(C)n2nnc(C(F)(F)F)n2)nn1-c1ncccc1Cl (stereo not drawn) [Example 438]")
3.35
>>> measured("Cc1cc(C#N)cc(C(=O)NC(C)C#N)c1NC(=O)c1cc(Cn2nnc(C(F)(F)F)n2)nn1-c1ncccc1Cl (stereo not drawn) [Example 326]")
2.76
>>> measured("Cc1cc(C#N)cc(C(=O)NCC(F)F)c1NC(=O)c1cc(Cn2nnnc2C(F)(F)F)nn1-c1ncccc1Cl [Example 207]")
2.57
>>> measured("Cc1cc(Cl)cc(C(=O)NC(C)C2CC2)c1NC(=O)c1cc(Cn2nnc(C(F)F)n2)nn1-c1ncccc1Cl (stereo not drawn) [Example 256]")
3.24

// lookup chromatographic logP for Cc1cc(C#N)cc(C(=O)NC(C)(C)C)c1NC(=O)c1cc(Cn2nnc(C3CC3)n2)nn1-c1ncccc1Cl [Example 105]
2.93

Proceed to Cc1cc(C#N)cc(C(=O)NCC2CCCCC2)c1NC(=O)c1cc(Cn2nnc(C(F)(F)F)n2)nn1-c1ncccc1Cl [Example 93]
3.96

Now consider Cc1cc(C#N)cc(C(=O)NCC2CCCCC2)c1NC(=O)c1cc(Cn2nnnc2C(F)(F)F)nn1-c1ncccc1Cl [Example 195] and answer again.
3.26

And O=C(NC1CC1)c1cc(Cl)cc(Cl)c1NC(=O)c1cc(Cn2nnc(C(F)(C(F)(F)F)C(F)(F)F)n2)nn1-c1ncccc1Cl [Example 339] ?
3.89

Same thing, different molecule: CNC(=O)c1cc(Cl)cc(C)c1NC(=O)c1cc(Cn2nnnc2C(F)F)nn1-c1ncccc1Cl [Example 470]
2.26

Do the same for NC(=O)c1cc(Cl)cc(Cl)c1NC(=O)c1cc(Cn2nnc(C(F)(C(F)(F)F)C(F)(F)F)n2)nn1-c1ncccc1Cl [Example 391] please
3.41

Okay, and CNC(=O)c1cc(Cl)cc(C)c1NC(=O)c1cc(Cn2nnc(C(F)(F)F)n2)nn1-c1ncccc1Cl [Example 11] ?
3.05

Param item: Cc1cc(F)cc(C(=O)NC(C)C2CC2)c1NC(=O)c1cc(Cn2nnc(C(F)F)n2)nn1-c1ncccc1Cl (stereo not drawn) [Example 293]
2.92

###

Overview of recorded chromatographic logP for various molecules
Experiment: log P determination by HPLC (EEC Directive 79/831 Annex V.A8)
Type: physicochemical
Conditions: reversed-phase HPLC, Zorbax Eclipse C18 column, determined by HPLC according to EEC Directive 79/831 Annex V.A8; read-out: log P
// return just the number, without any unit appended

Worked cases, answers included:
>>> measured("Cc1cc(Br)cc(C(=O)NC(C)C)c1NC(=O)c1cc(Cn2nnnc2C(F)(F)F)nn1-c1ncccc1C(F)(F)F [Example 459]")
3.29
>>> measured("Cc1cc(Br)cc(C(=O)NC(C)(C)C)c1NC(=O)c1cc(Cn2nnc(C(F)(F)F)n2)nn1-c1ncccc1Br [Example 409]")
4

Please look up its chromatographic logP: CCNC(=O)c1cc(C#N)cc(C)c1NC(=O)c1cc(Cn2nnc(C(F)(F)C(F)(F)F)n2)nn1-c1ncccc1Br [Example 426]
3.23

###

Items are presented alongside their recorded chromatographic logP.
Test: log P determination by HPLC (EEC Directive 79/831 Annex V.A8)
Type: physicochemical
Details: log P
// print number alone

>>> measured("Cc1cc(Cl)cc(C(=O)NC2CC2)c1NC(=O)c1cc(Cn2nnc(C(F)(F)F)n2)nn1-c1ncccc1Cl")
3.23
>>> measured("Cc1cc(Cl)cc(C(=O)NC2CC2)c1NC(=O)c1cc(Cn2nnnc2C(F)(F)F)nn1-c1ncccc1Cl")
2.89
>>> measured("Cc1cc(C)c(NC(=O)c2cc(Cn3nnc(C(F)(F)F)n3)nn2-c2ncccc2Cl)c(C(=O)NCC#N)c1")
2.83

Entry under review: Cc1cc(C#N)cc(C(=O)NC(C)C)c1NC(=O)c1cc(Cn2nnnc2C(F)F)nn1-c1ncccc1Cl . Reported chromatographic logP?
2.36

Now try O=C(NC1CCC1)c1cc(Cl)cc(Cl)c1NC(=O)c1cc(Cn2nnc(C(F)(F)C(F)(F)F)n2)nn1-c1ncccc1Cl .
3.92

What do you have for N#CCNC(=O)c1cc(Cl)cc(Cl)c1NC(=O)c1cc(Cn2nnc(C(F)F)n2)nn1-c1ncccc1Cl ?
2.48

Try CSC[C@H](C)NC(=O)c1cc(I)cc(C)c1NC(=O)c1cc(Cn2nnc(C(F)(F)F)n2)nn1-c1ncccc1Cl next.
3.9

Then this molecule: CNC(=O)c1cc(C#N)cc(C)c1NC(=O)c1cc(Cn2nnc(C(F)(F)C(F)(F)F)n2)nn1-c1ncccc1Cl
3.05

Next molecule up: CNC(=O)c1cc(Cl)cc(C)c1NC(=O)c1cc(Cn2nnc(C(F)F)n2)nn1-c1ncccc1Cl
2.46

Can you check CC(C)(C)NC(=O)c1cc(Cl)cc(Cl)c1NC(=O)c1cc(Cn2nnc(C(F)(F)C(F)(F)F)n2)nn1-c1ncccc1Cl next?
4.16

Request: Cc1cc(F)cc(C(=O)NC2CC2)c1NC(=O)c1cc(Cn2nnnc2C(F)(F)F)nn1-c1ncccc1Cl
2.57
